Each recorded value in this set is attributed to paper PMC8999677.

biological target: recombinant human IDO1 (rhIDO1) (Homo sapiens, UniProt P14902); experiment: Full-point MST binding assay against labelled rhIDO1; details: BEI = pKd/MW (kDa)
Sequence (P14902 whole entry): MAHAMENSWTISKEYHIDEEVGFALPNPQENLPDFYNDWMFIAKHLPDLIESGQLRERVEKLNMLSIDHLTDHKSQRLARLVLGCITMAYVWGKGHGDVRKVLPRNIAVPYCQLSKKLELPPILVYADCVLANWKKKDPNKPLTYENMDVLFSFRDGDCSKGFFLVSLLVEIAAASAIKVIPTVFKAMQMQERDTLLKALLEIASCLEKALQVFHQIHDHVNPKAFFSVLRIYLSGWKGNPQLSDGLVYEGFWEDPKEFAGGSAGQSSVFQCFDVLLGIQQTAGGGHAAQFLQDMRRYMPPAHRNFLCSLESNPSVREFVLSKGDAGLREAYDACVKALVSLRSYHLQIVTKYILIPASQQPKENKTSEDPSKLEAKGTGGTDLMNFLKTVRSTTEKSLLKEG
Exercise: state measured BEI (binding efficiency index) for each of the compounds provided.
Answers are plain numbers.

In the examples that follow, each entry is paired with its recorded BEI (binding efficiency index).
O=C(NC1CCC(F)(F)CC1)c1ccc2cc[nH]c2c1 : 19
O=C1Nc2ccccc2/C1=C/C(=O)c1ccccc1 : 18
O=C(Nc1nnc(-c2ccc(Cl)cc2)o1)C1CC1 : 16
O=C(/C=C/c1ccco1)c1ccc(O)cc1 : 21
O=C(NCc1ccccn1)c1nn[nH]c1-c1ccc(F)cc1 : 14

# batch: return BEI (binding efficiency index) for each of the 2 compounds below
1. CN(C(=O)Nc1c[nH]c2ccccc12)c1ccccc1
2. NC(=O)C1CCN(c2ccc3cccc(O)c3n2)CC1

result:
16
15
